System: TA98
Conditions: TA98, +S9, positive control compounds
Measured property: number of positive wells

Query string: # input compound: CN(N=O)C(=O)N[C@H]1C(O)O[C@H](CO)[C@@H](O)[C@@H]1O (mixture of isomers) ; wanted: its number of positive wells
Result string: 0/48

Query string: # input compound: `Nc1ccc2cc3ccccc3cc2c1` ; wanted: its number of positive wells
Result string: 13/48

Query string: # input compound: `O=c1c(O)c(-c2ccc(O)c(O)c2)oc2cc(O)cc(O)c12` ; wanted: its number of positive wells
Result string: 10/48

Query string: # input compound: `Nc1c2ccccc2nc2ccccc12` ; wanted: its number of positive wells
Result string: 0/48

---

System: TA1535
Conditions: TA1535, −S9, positive control compounds
Parameter number of positive wells: see the listing below.

Example cases with answers are listed next.
Nc1ccc2cc3ccccc3cc2c1 [Host 2-AA, 2-aminoanthracene]
0/48
CN(N=O)C(=O)N[C@H]1C(O)O[C@H](CO)[C@@H](O)[C@@H]1O (mixture of isomers) [Streptozotocin]
16/48
O=c1c(O)c(-c2ccc(O)c(O)c2)oc2cc(O)cc(O)c12 [Quercetin]
1/48

Next compound, number of positive wells to be filled in.
Query string: # input compound: Nc1c2ccccc2nc2ccccc12 [Host 9-AA, 9-aminoacridine] ; wanted: its number of positive wells
Result string: 0/48

---

System: TA100
Settings: TA100, −S9, positive control compounds
Parameter number of positive wells: see the listing below.

Example cases with answers are listed next.
Nc1c2ccccc2nc2ccccc12
0/48
O=c1c(O)c(-c2ccc(O)c(O)c2)oc2cc(O)cc(O)c12
0/48
Nc1ccc2cc3ccccc3cc2c1
0/48

Next compound, number of positive wells to be filled in.
Query string: # input compound: CN(N=O)C(=O)N[C@H]1C(O)O[C@H](CO)[C@@H](O)[C@@H]1O (mixture of isomers) ; wanted: its number of positive wells
Result string: 5/48

---

System: TA1535
Settings: TA1535, +S9, positive control compounds
Parameter number of positive wells: see the listing below.

Example cases with answers are listed next.
CN(N=O)C(=O)N[C@H]1C(O)O[C@H](CO)[C@@H](O)[C@@H]1O (mixture of isomers) [Streptozotocin]
24/48
O=c1c(O)c(-c2ccc(O)c(O)c2)oc2cc(O)cc(O)c12 [Quercetin]
0/48
Nc1ccc2cc3ccccc3cc2c1 [Host 2-AA, 2-aminoanthracene]
9/48

Next compound, number of positive wells to be filled in.
Query string: # input compound: Nc1c2ccccc2nc2ccccc12 [Host 9-AA, 9-aminoacridine] ; wanted: its number of positive wells
Result string: 0/48
